biological target: Neu5Ac(a2-8)Neu5Ac(a2-3)[GalNAc(b1-4)]Gal(b1-4)Glc; experiment: glycan array binding signal (z-score within array); higher = stronger binding; conditions: glycan notation: IUPAC condensed, linker removed
The sample as a whole holds a higher share of the strongest signals than the screen did.
parameter measured: glycan array binding signal (z-score)
When you answer, write just the number.

Record excerpt, results attached:
binder="IRP60A (Homo sapiens), Q9UGN4 (protein) MWLPWALLLLWVPGCFALSKCRTVAGPVGGSLSVQCPYEKEHRTLNKYWCRPPQIFLCDKIVETKGSAGKRNGRVSIRDSPANLSFTVTLENLTEEDAGTYWCGVDTPWLRDFHDPVVEVEVSVFPASTSMTPASITAAKTSTITTAFPPVSSTTLFAVGATHSASIQEETEEVVNSQLPLLLSLLALLLLLLVGASLLAWRMFQKWIKAGDHSELSQNPKQAATQSELHYANLELLMWPLQEKPAPPREVEVEYSTVASPREELHYASVVFDSNTNRIAAQRPREEEPDSDYSVIRKT" parameter_measured="glycan array binding signal (z-score)" value_reported=-0.404
binder="B936 (Bifidobacterium sp) (protein) MKNWKKAIALVASAAALVSVAACGPSNAGGSSDSGKKTVGFVAVGPEGGFRTANEKDIQKAFEDAGFDLTYSPTQNNDQQKQIQAFNKFVNDEVDAIILSSTEDSGWDDSLKKAAEAEIPVFTVDRNVDVKDAEAKKAIVAHIGPSNVWCGEQAAEFVNKNFPDGANGFILEGPAGLSVVKDRGTGWGNKVASNVKVLESQSANWSTDEAKTVTAGLLDKYKSDNPQFIFAQNDEMGLGAAQAVDAAGLKGKVKIITIDGTKNALQALVDGDLSYVIEYNPIFGKETAQAVKDYLDGKTVEKDIEIESKTFDAASAKEALDNNTRAY" parameter_measured="glycan array binding signal (z-score)" value_reported=-0.488
binder="RegIIIgamma (Mus musculus), O09049 (protein) MLPRITITIMSWMLLSCLMLLSQVQGEVAKKDAPSSRSSCPKGSRAYGSYCYALFSVSKNWYDADMACQKRPSGHLVSVLSGAEASFLSSMIKSSGNSGQYVWIGLHDPTLGYEPNRGGWEWSNADVMNYINWETNPSSSSGNHCGTLSRASGFLKWRENYCNLELPYVCKFKA" parameter_measured="glycan array binding signal (z-score)" value_reported=-0.133
binder="Actd5 (Actinidia), P84527 (protein) ISSCNGPCRDLNDCDGQLICIKGKCNDDPQVGTHICRGTTHSHQPGGCKPSGTLTCRGKSYPTYDCSPPVTSSTPAKLTNNDFSEGGDDGGPSECDESYHNNNERIVALSTGWYNGGSRCGKMIRITASNGKSVSAKVVDECDSRHGCDKEHAGQPPCRNNIVDGSNAVWSALGLDKNVGVVDITWSMA" parameter_measured="glycan array binding signal (z-score)" value_reported=-0.363

Switching to the query record.
Exercise: Tell me the measured glycan array binding signal (z-score) of PP2A1 (Arabidopsis thaliana) (protein) MFRNQDSKYLIPVQKEAPPVTTLPMKASTVKSPHNCEAILRDADPPISLSSVNLSEQLRSGVFLKPKKQIKYWVDERNSNCFMLFAKNLSITWSDDVNYWTWFTEKESPNENVEAVGLKNVCWLDITGKFDTRNLTPGIVYEVVFKVKLEDPAYGWDTPVNLKLVLPNGKEKPQEKKVSLRELPRYKWVDVRVGEFVPEKSAAGEITFSMYEHAAGVWKKGLSLKGVAIRPKQHHHHHH , please.
Solution: 0.265
